- Tested on: SW48
- PROTOCOL DETAILS: Antiproliferative activity against human SW48 cells after 72 hrs by luciferase based assay
- Format: functional, cell-based
- TEST CONTEXT: SW48, 72 h
EXPERIMENTAL ENDPOINT: IC50
State the result as a value with its unit after it.

Entry `Nc1nccc(-c2cc3c([nH]2)[C@@H](CCF)CNC3=O)n1` has what IC50? 900 nM

Item: `O=C1NCCc2[nH]c(-c3ccncc3)cc21` 1200 nM

----------
- TARGET SYSTEM: Cyclin-dependent kinase 2 (Homo sapiens)
EXPERIMENTAL ENDPOINT: IC50 (nM)
Please state the figure in nM; there is no need to write the unit.

Entry `Nc1nccc(-c2cc3c([nH]2)[C@@H](CCF)CNC3=O)n1` has what IC50? 138

----------
- PROTOCOL DETAILS: Antiproliferative activity against human […] cells after 72 hrs by luciferase based assay
- Assay type: functional, cell-based
Can you tell me IC50 for the items I'm about to list?
Please state the figure in nM; there is no need to write the unit.

Entry `Nc1nccc(-c2cc3c([nH]2)[C@@H](CCF)CNC3=O)n1` has what IC50? 400

Item: `O=C1NCCc2[nH]c(-c3ccncc3)cc21` 1000

----------
Can you tell me Vd for the items I'm about to list?
- PROTOCOL DETAILS: Volume of distribution at steady state in nu/nu mouse at 10 mg/kg, iv administered as single dose
- Format: ADME, organism-based
- Parameters: dose 10 mg/kg, route intravenous
- TEST CONTEXT: in vivo, read-out: Vdss
Please state the figure in L/kg; there is no need to write the unit.

Entry CCC1CNC(=O)c2cc(-c3ccnc(N)n3)[nH]c21 (stereo in doubt; 86-1) has what Vd? 1.5

Item: `Nc1nccc(-c2cc3c([nH]2)[C@@H](CCF)CNC3=O)n1` 2.6

Item: Nc1nccc(-c2cc3c([nH]2)C(CCC(F)(F)F)CNC3=O)n1 (stereo in doubt; 93-2) 1.5

----------
- PROTOCOL DETAILS: Half life in Wistar rat at 20 mg/kg, po administered as single dose
- TEST CONTEXT: in vivo
EXPERIMENTAL ENDPOINT: half-life (min)
Please state the figure in min; there is no need to write the unit.

Entry `Nc1nccc(-c2cc3c([nH]2)[C@@H](CCF)CNC3=O)n1` has what half-life? 372

----------
- PROTOCOL DETAILS: Cmax in Wistar rat at 10 mg/kg, iv administered as single dose
- Type: ADME, organism-based
- Set-up: dose 10 mg/kg, route intravenous
- TEST CONTEXT: in vivo
EXPERIMENTAL ENDPOINT: Cmax (µM)
Please state the figure in µM; there is no need to write the unit.

Entry `Nc1nccc(-c2cc3c([nH]2)[C@@H](CCF)CNC3=O)n1` has what Cmax? 15.7

----------
- PROTOCOL DETAILS: Metabolic stability in human hepatocytes expressing CYP3A4 assessed as drug remaining after 1 hr
- Assay type: ADME, cell-based, Hepatocyte
- TEST CONTEXT: read-out: Stability
EXPERIMENTAL ENDPOINT: remaining at 1 h (%)
Please state the figure in %; there is no need to write the unit.

Entry `Nc1nccc(-c2cc3c([nH]2)[C@@H](CCF)CNC3=O)n1` has what remaining at 1 h? 95

Item: Nc1nccc(-c2cc3c([nH]2)C(CCC(F)(F)F)CNC3=O)n1 (stereo in doubt; 93-2) 94

Item: CCC1CNC(=O)c2cc(-c3ccnc(N)n3)[nH]c21 (stereo in doubt; 86-1) 99
